Cited source for all entries: patent US20100261620A1

Recorded kon values for a group of binders are listed next.
ASSAY SYSTEM: IL-13 (Homo sapiens (Human), UniProt P35225 35-146, limits assumed)
Sequence (P35225 35-146 limits assumed): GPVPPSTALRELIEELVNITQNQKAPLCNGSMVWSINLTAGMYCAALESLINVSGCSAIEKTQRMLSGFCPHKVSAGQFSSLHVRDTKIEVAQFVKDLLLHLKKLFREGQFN
PROTOCOL SUMMARY: Biacore
READOUT NAME: kon (M⁻¹ s⁻¹)

1) M467 (antibody, V domains shown, anti-IL-13, human IgG1) VH: QVTLKESGPVLVKPTETLTLTCTVSGFSLSTYGMGVGWIRQPPGKALEWLAHIWWDDVKRYNPALKSRLTISKDTSKSQVVLTMTNMDPVDTATYYCARMGSDYDVWFDYWGQGTLVTVSS VL: EIVLTQSPATLSLSPGERATLSCRASKSISKYLAWYQQKPGQAPRLLIYSGSTLQSGIPARFSGSGSGTDFTLTISSLEPEDFAVYYCQQHSWAPYTFGQGTKLEIK: 1e+06
2) M1295 (antibody, V domains shown) VH: QVTLKESGPVLVKPTETLTLTCTVSGFSLSTYGVGVGWIRQPPGKALEWLAHIWWDDVKRYNPALKSRLTISKDTSKSQVVLTMTNMDPVDTATYYCARLGSDYDVWFDYWGQGTLVTVSS VL: EIVLTQSPATLSLSPGERATLSCRASKSISKYLAWYQQKPGQAPRLLIYSGSTLQSGIPARFSGSGSGTDFTLTISSLEPEDFAVYYCQQHDYPYTFGQGTKLEIK: 1.2e+06
3) M472 (antibody, V domains shown, anti-IL-13, human IgG1) VH: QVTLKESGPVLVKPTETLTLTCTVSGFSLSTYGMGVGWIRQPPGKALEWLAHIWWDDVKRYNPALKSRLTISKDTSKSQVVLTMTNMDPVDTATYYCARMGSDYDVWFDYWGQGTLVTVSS VL: EIVLTQSPATLSLSPGERATLSCRASKSISKYLAWYQQKPGQAPRLLIYSGSTLQSGIPARFSGSGSGTDFTLTISSLEPEDFAVYYCQQPLDSPYTFGQGTKLEIK: 1.44e+06
